tgt: Neu5Gc(a2-3)Gal(b1-4)GlcNAc
testDetails: glycan array binding signal (z-score within array); higher = stronger binding
cond: glycan notation: IUPAC condensed, linker removed
Many of the other results were omitted from the sample, so the strongest signals are more common in it than they were.
recordedMetric: glycan array binding signal (z-score)
Numbers only.

Please review the entries below; each comes with its answer.
RegIIIbeta (Mus musculus), P35230 (protein) MLPPTACSVMSWMLLSCLMLLSQVQGEDSLKNIPSARISCPKGSQAYGSYCYALFQIPQTWFDAELACQKRPGGHLVSVLNSAEASFLSSMVKRTGNSYQYTWIGLHDPTLGAEPNGGGWEWSNNDVMNYFNWERNPSTALDRAFCGSLSRASGFLKWRDMTCEVKLPYVCKFTG: -0.116
MD-2 (Homo sapiens) (protein) MLPFLFFSTLFSSIFTEAQKQYWVCNSSDASISYTYCDKMQYPISINVNPCIELKGSKGLLHIFYIPRRDLKQLYFNLYITVNTMNLPKRKEVICRGSDDDYSFCRALKGETVNTTISFSFKGIKFSKGKYKCVVEAISGSPEEMLFCLEFVILHQPNSN: -0.291
AICL (Homo sapiens), Q92478 (protein) MMTKHKKCFIIVGVLITTNIITLIVKLTRDSQSLCPYDWIGFQNKCYYFSKEEGDWNSSKYNCSTQHADLTIIDNIEEMNFLRRYKCSSDHWIGLKMAKNRTGQWVDGATFTKSFGMRGSEGCAYLSDDGAATARCYTERKWICRKRIH: 0.329

Batch request: glycan array binding signal (z-score) per item, same order as input.
1. LICBM33A (Lactococcus lactis), Q9CE94 (protein) MKKLLTGLLVAAGLLSVSLLIKTDTVSAHGYVQSPPARGYQGQLDSQSLGWTAAFNIYGNVISNPQSLEAPKGFPECGPADGRIASANGGLGQIGDFVLDNQTSSRWKKTSISTGSNIFTWKYTAPHKTTKWHYYMTKTGWDQNAPLKHSELELIGTINHDGSPATNNLSHTINIPTDRSGYHIVLAVWDVADTSNAFYNVIDINVNNKNASSQVFGPFL
2. MpAFP NterminalRI GFP (Marinomonas primoryensis) (protein) MSDNQFPFATLGNAIGFITKLDGSVTVQSIDGQERVLKLGDPIFFGETVLTGGSGSVTIAFVDGTDVVIGGDSIVEMTDEIYNTGDNEDLVADSSSEIDALQNAILAGDDPTLIQDAPAAGNTLADQQRVDVSIERNDNSAQAGFGVDTQSSLPTYGYDTDNGNGGQATEREYSAPSLSRTLNQSPLLEHHHHHH
3. LysMD3 (Homo sapiens), Q7Z3D4 (protein) MAGRHQNRSFPLPGVQSSGQVHAFGNCSDSDILEEDAEVYELRSRGKEKVRRSTSRDRLDDIIVLTKDIQEGDTLNAIALQYCCTVADIKRVNNLISDQDFFALRSIKIPVKKFSSLTETLCPPKGRQTSRHSSVQYSSEQQEILPANDSLAYSDSAGSFLKEVDRDIEQIVKCTDNKRENLNEVVSALTAQQMRFEPDNKNTQRKDPYYGADWGIG
4. ECA (Erythrina cristagalli), P83410 (protein) VETISFSFSEFEPGNDNLTLQGAALITQSGVLQLTKINQNGMPAWDSTGRTLYTKPVHMWDSTTGTVASFETRFSFSIEQPYTRPLPADGLVFFMGPTKSKPAQGYGYLGVFNNSKQDNSYQTLAVEFDTFSNPWDPPQVPHIGIDVNSIRSIKTQPFQLDNGQVANVVIKYDAPSKILHVVLVYPSSGAIYTIAEIVDVKQVLPDWVDVGLSGATGAQRDAAETHDVYSWSFQASLPE

**A:**
1. -0.141
2. -0.632
3. -0.032
4. -0.327

Each of the following entries comes with a recorded value; kindly state glycan array binding signal (z-score) for each.
1. EULS2 M3 (Oryza sativa) (protein) MVYCRANPNYAMTARNGAVVLAPANPKDEYQHWIKDMRWSTSIKDEEGYPAFALVNKATGQAIKHSLGQSHPVRLVPYNPEVMDESVLWTESRDVGNGFRCIRMVNNIYLNFDAFHGDKYHGGVRDGTDIVLWKLCEGDSLRWKIQPYYILEQKLISEEDLNSAVDHHHHHH
2. SLR2P2A3 (Tachypleus tridentatus), TAL2_TACTR (protein) MEKGTPPTHDSDNWMGRAKKIGNGGWNQFQFLFFDPNGYLYAVSKDKLYKASPPQSDTDNWIARATEIGSGGWSGSKFLFFHPNGYLYAVHGQRLYKALPPVSNQD
3. CTAEGIKKFEGDGYELFKDNFPAGEKFDNDDTNDQFYTVIF [MUB40 (Lactobacillus reuteri)]
4. Sebin1 (Coprinopsis cinerea), A8PEE3 (protein) MTSPFYAHIHNVQDDNTWRFTLIFANRATADEWWRAISEAPANTSIAKSITRVTPQYYTHDVNIWNIWNFFADGNIKSISERFRGRLFIVLENDRGGRGITVIPPVPIVDHVSGNWFYIRSKTAPHLFWYYDERRSSIYASKEKRTRFKISIRNPSSQTPKNAIMINTDDVTIHIKENLYVGVDNNLGHIIPTRAYRTFKFGELESGAIAGFDVVENIEERCSSTFDGASLSISGPDSSSPGEPWELV
5. Nc3LysM-2 (protein) AHVLQARQSVSCDFATAANTGDTCASFAAAWGITEAAFAKLNPGVSCPGNLIAGSEYCVIGTVSTGAPTTTKAATTSTTPPTTTTTTKATTLSTSTTSVSPTGPSPQMPSITSTCNKFYQVQSGDGCWSIEQAQGVSASDFMAWNKAVDAQCDNLWLGYYVCVGVKGGSSPPPTTTTKPASSSAPTPQMPNTVSNCKKFHKVVSGDGCWAIEQAAGISASDFAKWNPYVDAACDNLWLGYYVCIGV

**A:**
0.145
-0.059
2.42
-0.074
-0.122
